- Test system: Jurkat cells
- method.notes: Tacrolimus dose response of FKBP13-AcGFP-mCherry constructs stably transduced into Jurkat cells, GFP MFI by flow cytometry
- Format: cell-based
- condition.parameters: tacrolimus; FIG. 38
Entries and their measured FC follow.
Please give the numeric answer without any surrounding text.

FKBP-117: FKBP13 DRD Q72R, Q84E, A117W, V85R; SEQ ID NO: 67 (protein, Description of sequence: FKBP13-AcGFP-mCherry Fusion; Construct Name: FKBP-117; FKBP13 DRD in Construct : FKBP13 (mutated to match FKBP12 active site Q72R Q84E A117W) (DRD V85R)) HCPIKSRKGDVLHMHYTGKLEDGTEFDSSLPRNQPFVFSLGTGERIKGWDQGLLGMCEGEKRKLVIPSELGYGERGWPPKIPGGATLVFEVELLKIER; 24.07

Note: attention shifts to another entry.
FC reading for FKBP-195: combinatorial FKBP13 mutant construct of Table 10, carries K135Y (protein, Description of sequence: Construct Name: FKBP-195; Mutation(s): Q72R Q84E A117W V85R DRD K135Y) HCPIKSRKGDVLHMHYTGKLEDGTEFDSSLPRNQPFVFSLGTGERIKGWDQGLLGMCEGEKRKLVIPSELGYGERGWPPKIPGGATLVFEVELLYIER : 89.61
